All values here come from ChEMBL document CHEMBL4673289.

study_target: Bromodomain-containing protein 4 (Homo sapiens, UniProt O60885)
experiment_summary: Inhibition of BRD4 (unknown origin) at 1 uM preincubated for 15 mins followed by substrate addition and measured after 1 hr by AlphaScreen assay relative to control
conditions: time 75.0 min
readout_name: inhibition (%)

# annotated cases, reported inhibition shown
CCS(=O)(=O)c1ccc(Oc2ccc(F)c(-c3c(C)noc3C)c2)c(-c2cn(C)c(=O)c3cncn23)c1	78.1
CCS(=O)(=O)c1ccc(Oc2cc(-c3c(C)noc3C)ccc2C)c(-c2cn(C)c(=O)c3cncn23)c1	95.2
CCS(=O)(=O)c1ccc(Oc2cc(-c3c(C)noc3C)ccc2OC)c(-c2cn(C)c(=O)c3cncn23)c1	99.9
CCS(=O)(=O)c1ccc(Oc2ccc(Cl)c(-c3c(C)noc3C)c2)c(-c2cn(C)c(=O)c3cncn23)c1	64.9
CCS(=O)(=O)c1ccc(Oc2cc(-c3c(C)noc3C)ccc2C#N)c(-c2cn(C)c(=O)c3cncn23)c1	31.2

(P) CCS(=O)(=O)c1ccc(Oc2cccc(-c3c(C)noc3C)n2)c(-c2cn(C)c(=O)c3cncn23)c1
(Q) CCS(=O)(=O)c1ccc(Oc2cc(F)c(F)c(F)c2)c(-c2cn(C)c(=O)c3cncn23)c1
Data request: Returns: the argument ( P or Q ) having the larger inhibition. Select an item and report its label.
Data returned: P

(I) Cc1noc(C)c1-c1cccc(Oc2ccc(S(C)(=O)=O)cc2-c2cn(C)c(=O)c3cncn23)c1
(II) CCS(=O)(=O)Nc1ccc(Oc2ccccc2F)c(-c2cn(C)c(=O)c3cncn23)c1
Data request: Returns: the argument ( I or II ) having the larger inhibition. Select an item and report its label.
Data returned: II
(II: 100%, I: 62.7%)
